B1: LINE1-mini (parent)
chain: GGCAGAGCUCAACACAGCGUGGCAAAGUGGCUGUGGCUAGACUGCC

variants of: B1; assay: self-cleavage, relative activity (ratio to wild type); higher = more cleavage; in vitro, sequencing; the parent is a self-cleaving ribozyme
This section presents variants with their documented self-cleavage values.
Observable: self-cleavage

G19A G33C; 0.05
C18A C45G; 0.14
C13U G44C; 0.06
C31U A39U; 0.13
G5C G29C; 0.05
U38C U43A; 0.04
A4G A11U; 0.05
A6G C8G; 0.08
C37U; 0.07
A12C U43A; 0.03
A12G A41U; 0.04
A6U; 0.7
U28A C46A; 1.23
C13U G35C; 0.22
G7A C31A; 0.21
G30C A39G; 0.12
C13A C23U; 0.16
G22C G44A; 0.13
G19A G36A; 0.18
A12C G27C; 0.03
G21C A26C; 1.03
U34G C42G; 0.05
C3U A24G; 0.24
C13A U32A; 0.11
A4U A24C; 0.4
U32G G36A; 0.09
G1A G17U; 0.13
G1U G33U; 0.06
G30A U43C; 0.22
U28G G36C; 0.05
A6G U34A; 0.04
A16C C37A; 0.06
G1C C37U; 0.02
G21A U38G; 0.03
A26G U43A; 0.07
U9A A39G; 0.21
C15G C37U; 0.04
C3U C18A; 0.23
G2C G27A; 0.13
A11G G29C; 0.3
G27C U34G; 0.2
A12G U43G; 0.1
A25C G29U; 1.19
C10G G22A; 0.13
C3U C37U; 0.14
U20G C37U; 0.06

The values you see were collected from the RNAGym collection of RNA variant scans (doi:10.7554/elife.90254).
